ASSAY_INFO: yeast display, Sf9 membrane polyspecificity reagent, FACS + sequencing; frameworks hold sequencing errors

{"columns": ["RESIDUE_STRING", "polyreactivity (PSR sort gate)"],
 "data": [
  ["QVQLVESGGGLVQAGGSLRLSCAASGRTFGRYAMGWYRQAPGKERELVAAINRGGSTKYADSVKGRFTISRDNAKNTVYLQMNSLKPEDTAVYYCAKDRHPALHYDYWGQGTQVTVSS", "low polyreactivity"],
  ["QVQLVESGGGLVQAGGSLRLRCAASGRTFWRYAMGWYRQAPGKEREFVAAISSSGGNTYYADSVKGRFTITRDNANNTVYLQTNSLKPEDTAVYYCAAYYITALGIKDYVRYYWGQGTQVTVSS", "high polyreactivity"],
  ["QVQLVESGGGIVQAGGSIRLSCAASGRIFRYYAMGWYRQAPGKERELVATISRSGGSTFYAESVKGRFTISRDNAKNTVYLQMNSLIPEDTAVYYCNARYQTGGYGYWGQGTQVTVSS", "high polyreactivity"],
  ["QVQLVESGGGLVQAGGSLRLSCAASGRTLEDYVMGWYRQAPGKERELVAAIYWSGVSTYYADSVKGRFTISRDNAKNTVYLQMNSMKPEDTAVYYCAKDSTADELTGFDYWGQGTQVTVSS", "low polyreactivity"],
  ["QVQLVESGGGLVQAGGSLRLSCAASGRIFSFNAMGWYRQAPGKERELVASGGSTYADSVKGRFTISRDNAKNTVYLQMNSLKPEDTAVYYCAADPFYYFPSPFDYWGQGTQVTVSS", "low polyreactivity"],
  ["QVKLVESGGGLVQAGGSLRLSFDASGSTFYFYAMGLYRQDPGKETEFFAAITQSGGSTNYADSVKGRFTISRDKAKNTVYLQMNSLKPEDTAVYYCSAREWRSFDYWGQGTQVTVSS", "low polyreactivity"],
  ["QVQLVESGGGLVQAGGSLRLSCAASGSTFNYYALGGYRQAPGKERELVAAISTSDGSTYYADSVKGRFTISRDNAKITVYVQMNSLKPEDTAVYYCAADSYERFPSYYYWGQGTQVTVSS", "low polyreactivity"],
  ["QVQLVESGGGLVQAGGSLRLSCAASGIIFRPYTMGWYRQAPGKERELVAAISQSGGRTYYADSVKGRFTISRDNAKNTVYLQMNSLKPEDTAVYYCNVLGSYSYYGGNDLWYYYWGQGTQVTVSS", "high polyreactivity"],
  ["QVQLVESGGGLVQAGGSLRLSCAASGSTFVDNAMGWYRQAPGKEREFVAAIDWSGGSTFYADSVKGRFTISRDNAKNTVYLQMNSLKPEDTAVYYCAAYPQAYIADYDYWGQGTQVTVSS", "low polyreactivity"],
  ["QVQLVESGGGLVQAGGSLRLSCAASGSTFLNYAMGWYRQAPGKERELVAAISFSGGRTYYADSVKGRFTISRDNAKNTVYLQMNSLKPEDTAVYYCAAGGWRGHYYWGQGTQVTVSS", "high polyreactivity"],
  ["QVQLVESGGGLVQAGGSLRLTCAASGSIFYWYAMGWYRQAPGKERELVAAISSSGSTNYADSVKGRFTISRDNAKNTVYLQMNSLKPEDTAVYYCGAYRTGYNGWGYGYWGQGTQVTVSS", "high polyreactivity"],
  ["QVQLVESGGGLVQAGGSLRLSCAASGRMFRWYAMGWYRPAPGKERELVAAITSGGSTNYADSVKGRFTISRDNAKNTVYLKMNSLKPEDTAVYYCAARWKFPSSFYYWGQGTQVTVSS", "high polyreactivity"],
  ["QVQLVESGGGLVQAGGSLRLSCAASGIIFPFYAMGWYRQAPGKERELVAAITSGDDTYYADSVKGRFTISRDNAKNTVYLQMNSLKPEVTAVYYCNKRLYIAGYWPQLYYIMDYWGQGTQVTVSS", "low polyreactivity"],
  ["QVQVVESGGGLVQAGGSLRLSCAASGFTFAVYAMGWYRQAPGKERELVAAISRSGTRTYYADSVKGRFTISRDNAKNTVYVQMNSLKPEDTAVYYCAADKYRHGYDYWGQGTQVTVSS", "low polyreactivity"],
  ["QVQLVESGGGLVQAGGSLRLSCAASGRTFYYNTMGWYRQAPGKERELVAAITSRGSTYADSVKGRFTISRDNAKNTVYLQMNSLKPEDTAVYYCAAVWRYGSWYSGRLYEYWGQGTQVTVSS", "high polyreactivity"],
  ["QVQLVESGGGLVQAGGSLRLSCAASGSIFQGYALGWYRQAPGKERELVAAITASGGSTYYADSVKGRFTISRDNAKNTVYLQMNSLKPEDTAVYYCATDSYWRQDLYRYEYWGQGTQVTVSS", "high polyreactivity"],
  ["QVQLVESGGGLVQAGGSLRLSCAASGRIITRNVMGWYRQAPGKERELVAAISTSGGSTFYADSVKGRFTISRDNAKKTVYLQMNSLKPEDTAVYYCAKRRYGKLEFWGQGTQVTVSS", "high polyreactivity"],
  ["QVQLVESGGGLVQAGGSLRLSCAASGIIFAWYAMGWYRQAPGKERELVAAISYSGGTTYYADSVKGRFTISRDNAKNTVYLQMNSLKPEDTAVYYCAARLHHFFTYDYWGQGTQVTVSS", "low polyreactivity"],
  ["QVQLVESGGGLVQARRSLRLSCAASGSTFVGNTMGWYRQAPGTERELVAAISRRGGGTNYADSVKGRFTISRDNAKNTVYLQMNSLKPEDTAVYYCAAKLVYPGKFNYWGQGTQVTVSS", "high polyreactivity"],
  ["QVQLVESGVCLVQAGGSLRLSCAASGFTFKWYAMGWYRQAPGKERELVATITIGGRTNYADSVKGRFTISRDNAKNTVYLQMNSLKPEETAVYYCATYFVGFRLSDYDYWGQGTQVTVSS", "low polyreactivity"],
  ["QFKLVESGGGLVQAGGSLRLSCAASGFTFRLVKAMRWYRQAPGKERELVAGINSGDITYYADSVKGRFTISRDNAKNTVYLQMNSLKPEDTAVYYCAARVVYGYGHYDYWGQGTQVTVSS", "low polyreactivity"]
]}

---

ASSAY_INFO: yeast display, Sf9 membrane polyspecificity reagent, FACS + sequencing; frameworks hold sequencing errors
TEST_READOUT: polyreactivity (PSR sort gate)

{"columns": ["RESIDUE_STRING", "TEST_READOUT", "TEST_VALUE"],
 "data": [
  ["QVQLVESGGGLVQAGGSLRLSCAASGFTFWGYAMGWYRQAPGKERELVAGITRSGGNTYYADSVKGRFTISRDNAKNTVYLEMNSLKPEDSAVYYCAKRHFWNLTPYYFYRTIPDYYWGQGTQVTVSS", "polyreactivity (PSR sort gate)", "high polyreactivity"],
  ["QVQLVESGGGLVQAGGSLRLSCAASGRIFDFNAMGWYRQAPGKERELVAAITWSGTSTYYADSVKGRFTISRDNAKNTVYLQMNSLKPEDTAVYYCAVDYSPWWAFSYSDYYYWGQGTQVTVSS", "polyreactivity (PSR sort gate)", "high polyreactivity"]
]}

---

ASSAY_INFO: yeast display, Sf9 membrane polyspecificity reagent, FACS + sequencing; frameworks hold sequencing errors
TEST_READOUT: polyreactivity (PSR sort gate)

{"columns": ["RESIDUE_STRING", "TEST_VALUE"],
 "data": [
  ["QVQLVESGGGLVQAGGSLRLSCAASGFTLQRYAMGWYRQAPGKEREFVAVITRSGGSTYYADSVKGRFTISRDNAKNSVYLQMNSLKPEDTAVYDCAKREFPTTRNRGRYDYWGQGTQVTVSS", "high polyreactivity"],
  ["QVQLVESGGGLVQAGGSLRLSCAASGRIFSLNAMGWYRQAPGKERELVAGIRKRGGSTYYADSVKGRFTISRDNAKNTVYLQMNSLKPEHTAVYYCAAQPALTYRFYYWGQGTQVTVSS", "high polyreactivity"],
  ["QVQLVESGGGLVQAGGSLRLSCAASGSIFDDYAMGWYRQAPGKEREFVATITTSGGNTYYADSVKGRFTISRDNAKNTVYLQMHSLKPEDTAVYYCAKDRVKSPYLVYDSWGQGTQVTVSS", "low polyreactivity"],
  ["QVQHGESGGGLVQAGSSLRLSCAASGSTIVNNAMGWYRQAPGKERELVAANTSGGSTNYADSVKGRFTISRDNAKNTVYLQMNSLKPEDTAVYYSNADGDSWYTGIPAVSHGYWGQGTQVTVSS", "low polyreactivity"],
  ["QVHLVESGGGLVQAGGSLRLSFAAYGSIFIQYVMGWYRQAPGKERELVAAISRRGGSTYYADSVKGRFTISRDNAKNTVYLHMNSLKPEDTAVYYCAAGSAYSIGYYWGQGTQVTVSS", "high polyreactivity"]
]}

---

ASSAY_INFO: yeast display, Sf9 membrane polyspecificity reagent, FACS + sequencing; frameworks hold sequencing errors
TEST_READOUT: polyreactivity (PSR sort gate)

{"columns": ["RESIDUE_STRING", "TEST_VALUE"],
 "data": [
  ["QVQLVESGGGLVQAGSSLRLSCAASGRTLIYNAMGWYRQAPGKERELVASINRRGDSTYYADSVKGRFTISRDNAKNTVYLQMNSLKPEDTAVYYCAKVLYGGYPENRYFVGWGRDYWGQGTQVTVSS", "high polyreactivity"],
  ["QVQLVESGGGLVQAGGSLRLSCAASGSIFKCNAMGWYRQAPGKERELVASITRSGGSTYYADSVKGRFTISRDNAKNTVYLQMNSLKPEDTAVYYCARSYGWYRWAGYDYWGQGTQVTVSS", "high polyreactivity"],
  ["QVQLVESGGGLVQAGGSLRLSCAASGTFARYAMGWYRQAPGKERELVAAISRRGGSTYYADSVKGRFTISRDNAKNTVYLQMNSLKPEDTAVYYCAADNTQVRPKYDYWGQGTQVTVSS", "high polyreactivity"],
  ["QVQLVESGGGLVQAGGSIRLSCAASVSIQTRNAMGWYRQAPGKERELVAAISRGGSTTYADSVKGRFTISRDNAKNTVYLQMNSLKPEDTAVYYCAASDYYVLSRRTRMDYWGQGTQVTVAS", "high polyreactivity"],
  ["QVQLVESGGGLVQAGGSLRLSCAASGYTFLYYAMGWYRQAPGKEREFVAAISRSGGSTYYADSVKGRFTISRDNAKNTVYLQMNSLKPEDTAVYYCAKDHPSGRQYDYWGQGTQVTVSS", "high polyreactivity"]
]}
